Just for reference, ChEMBL document CHEMBL4130492 is where these values come from.

Target: Lysine-specific histone demethylase 2 (Homo sapiens)
Sequence (Q8NB78 whole entry): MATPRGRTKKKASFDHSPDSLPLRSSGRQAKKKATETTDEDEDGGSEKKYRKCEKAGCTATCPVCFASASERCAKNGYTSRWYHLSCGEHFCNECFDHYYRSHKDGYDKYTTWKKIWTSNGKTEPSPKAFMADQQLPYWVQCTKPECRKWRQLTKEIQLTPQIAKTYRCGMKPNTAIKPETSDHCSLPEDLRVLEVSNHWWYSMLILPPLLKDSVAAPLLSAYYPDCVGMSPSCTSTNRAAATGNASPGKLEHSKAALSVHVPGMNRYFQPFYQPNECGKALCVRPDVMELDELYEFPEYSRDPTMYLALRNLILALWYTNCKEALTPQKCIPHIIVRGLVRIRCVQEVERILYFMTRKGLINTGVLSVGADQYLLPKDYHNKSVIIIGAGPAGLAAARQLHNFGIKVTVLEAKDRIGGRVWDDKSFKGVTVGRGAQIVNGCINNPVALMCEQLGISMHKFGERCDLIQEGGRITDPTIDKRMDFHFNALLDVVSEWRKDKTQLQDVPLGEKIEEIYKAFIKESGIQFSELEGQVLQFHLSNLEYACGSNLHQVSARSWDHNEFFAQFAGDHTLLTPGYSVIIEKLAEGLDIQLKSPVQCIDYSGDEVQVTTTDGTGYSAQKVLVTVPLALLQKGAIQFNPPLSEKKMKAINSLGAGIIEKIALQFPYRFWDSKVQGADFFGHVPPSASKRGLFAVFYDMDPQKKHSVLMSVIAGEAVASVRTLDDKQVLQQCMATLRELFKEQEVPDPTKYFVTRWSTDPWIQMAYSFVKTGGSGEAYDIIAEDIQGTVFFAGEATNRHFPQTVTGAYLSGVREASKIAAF
VALUE_TYPE: IC50

>>> endpoint_result("NC1CCC(N[C@@H]2C[C@H]2c2ccccc2)CC1 (stereo partly specified)")
"> 100 µM"
